molecular target: 5-HT2A receptor (Homo sapiens, UniProt P28223); construct: host or cells: HEK293; experiment: FLIPR Ca2+ flux functional assay, 5-HT2A; format: cell-based; details: agonist activity, Ca2+ flux, HEK293 cells
Sequence (P28223 whole entry): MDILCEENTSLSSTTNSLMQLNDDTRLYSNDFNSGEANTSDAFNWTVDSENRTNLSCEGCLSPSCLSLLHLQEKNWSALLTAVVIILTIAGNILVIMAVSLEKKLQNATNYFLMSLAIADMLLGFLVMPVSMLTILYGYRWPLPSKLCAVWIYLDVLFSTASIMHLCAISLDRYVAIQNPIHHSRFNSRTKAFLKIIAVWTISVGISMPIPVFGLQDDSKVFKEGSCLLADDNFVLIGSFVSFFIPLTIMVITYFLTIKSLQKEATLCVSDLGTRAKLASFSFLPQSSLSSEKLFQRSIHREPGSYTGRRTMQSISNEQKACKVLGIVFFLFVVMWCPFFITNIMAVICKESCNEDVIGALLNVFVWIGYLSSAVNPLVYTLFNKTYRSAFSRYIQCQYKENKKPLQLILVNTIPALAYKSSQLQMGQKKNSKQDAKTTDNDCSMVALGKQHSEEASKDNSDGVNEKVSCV
Some compounds, each annotated with its measured Emax.
Answer with the figure and its unit, nothing else.

Before answering, review these 2 worked examples.
1) COc1ccc(F)c2[nH]cc(CCN(C(C)C)C(C)C)c12 [Example P-105]
91.2%
2) COc1ccc2[nH]cc(CCN(C)C(C)C)c2c1C [Example P-38]
83.3%

Entry CCN(CCc1c[nH]c2cc(C)c(OC)cc12)C(C)C [Example P-47] , Emax reported as 64.7%

So, Cc1ccc(O)c2c(CCN(C(C)C)C(C)C)c[nH]c12 [Example P-90] ? Its Emax was 95.1%

Note to self: Emax recorded for CCCN(CCC)CCc1c[nH]c2c(C)ccc(O)c12 [Example P-89] was 118%

The reported value for CCN(C)CCc1c[nH]c2ccc(OC)c(C)c12 [Example P-37] in terms of Emax is 80.3%

GET /value?item= CCN(CC)CCc1c[nH]c2ccc(F)c(OC)c12 [Example P-94] &field=Emax returns 98.1%

# compound COc1cc(F)c2[nH]cc(CCN(C(C)C)C(C)C)c2c1 [Example P-118] ; its Emax = 82.2%

Given item COc1cc2c(CCN(C)C(C)C)c[nH]c2cc1C [Example P-44] , the value recorded as its Emax is 72.6%

Sample COc1ccc(F)c2[nH]cc(CCN(C)C)c12 [Example P-101] ; Emax observed: 71.6%

Record COc1c(C)ccc2[nH]cc(CCN(C)C(C)C)c12 [Example P-60] . Reported Emax: 66.3%

// field: Emax; key: CCN(CCc1c[nH]c2ccc(OC)c(C)c12)C(C)C [Example P-40] ; value = 78.4%

Emax reading for CCN(CCc1c[nH]c2ccc(C)c(OC)c12)C(C)C [Example P-62] : 41.9%

Measured Emax, CCN(CC)CCc1c[nH]c2ccc(C)c(OC)c12 [Example P-61] : 67.7%

// Emax value for CCN(C)CCc1c[nH]c2c(F)ccc(OC)c12 [Example P-102] : 60.8%

Emax reading for Cc1ccc2[nH]cc(CCN(C(C)C)C(C)C)c2c1O [Example P-69] : 78.8%

# compound CCCN(CCC)CCc1c[nH]c2c(C)cc(OC)cc12 [Example P-57] ; its Emax = 79.2%

// Emax value for CN(C)CCc1c[nH]c2ccc3c(c12)OCC3 [Example P-3] : 81%

Reported Emax ( CCN(CC)CCc1c[nH]c2c(F)ccc(OC)c12 [Example P-104] ) = 77.5%

Sample COc1ccc(C)c2[nH]cc(CCN(C)C)c12 [Example P-13] ; Emax observed: 36.1%

Lookup result for COc1c(F)ccc2[nH]cc(CCN(C)C)c12 [Example P-91] ; measured Emax: 74.9%

* * *

molecular target: 5-HT2B receptor (Homo sapiens); construct: host or cells: CHO-K1; test: cell-based; settings: agonist activity, Ca2+ flux, CHO-K1 cells; read-out: 5-HT2B EC50
readout.kind: EC50

# EC50 (molecule: CCN(C)CCc1c[nH]c2c(C)ccc(OC)c12 ) is > 10 µM

* * *

Target: 5-HT2C receptor (Homo sapiens)
Construct: host or cells: HEK293
Sequence (P28335 33-458): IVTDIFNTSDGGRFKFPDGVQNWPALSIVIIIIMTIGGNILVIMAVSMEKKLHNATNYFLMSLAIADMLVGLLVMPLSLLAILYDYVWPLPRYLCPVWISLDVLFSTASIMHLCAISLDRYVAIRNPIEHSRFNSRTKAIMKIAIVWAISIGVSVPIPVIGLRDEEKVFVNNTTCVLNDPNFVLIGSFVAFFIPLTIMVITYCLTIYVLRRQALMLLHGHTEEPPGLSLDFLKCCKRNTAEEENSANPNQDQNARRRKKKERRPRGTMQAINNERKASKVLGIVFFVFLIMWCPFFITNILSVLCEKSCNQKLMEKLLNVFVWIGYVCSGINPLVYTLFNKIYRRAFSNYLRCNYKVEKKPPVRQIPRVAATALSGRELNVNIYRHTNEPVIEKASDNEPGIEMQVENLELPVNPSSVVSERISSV
Test: cell-based
Conditions: agonist activity, Ca2+ flux, HEK293 cells
readout.kind: Emax
Please state the number and follow it with the unit.

Example compounds with recorded Emax:
1) CCN(CC)CCc1c[nH]c2ccc3oc(C)nc3c12 [Example P-134]
91.3%
2) COc1ccc(C)c2[nH]cc(CCN(C)C)c12 [Example P-13]
69.5%

Consider CCN(CC)CCc1c[nH]c2cc(F)cc(OC)c12 [Example P-98] . Its measured Emax is 71.8%

* * *

biological target: 5-HT2B receptor (Homo sapiens, UniProt P41595); construct: host or cells: CHO-K1; assay: cell-based; details: agonist activity, Ca2+ flux, CHO-K1 cells
Sequence (P41595 whole entry): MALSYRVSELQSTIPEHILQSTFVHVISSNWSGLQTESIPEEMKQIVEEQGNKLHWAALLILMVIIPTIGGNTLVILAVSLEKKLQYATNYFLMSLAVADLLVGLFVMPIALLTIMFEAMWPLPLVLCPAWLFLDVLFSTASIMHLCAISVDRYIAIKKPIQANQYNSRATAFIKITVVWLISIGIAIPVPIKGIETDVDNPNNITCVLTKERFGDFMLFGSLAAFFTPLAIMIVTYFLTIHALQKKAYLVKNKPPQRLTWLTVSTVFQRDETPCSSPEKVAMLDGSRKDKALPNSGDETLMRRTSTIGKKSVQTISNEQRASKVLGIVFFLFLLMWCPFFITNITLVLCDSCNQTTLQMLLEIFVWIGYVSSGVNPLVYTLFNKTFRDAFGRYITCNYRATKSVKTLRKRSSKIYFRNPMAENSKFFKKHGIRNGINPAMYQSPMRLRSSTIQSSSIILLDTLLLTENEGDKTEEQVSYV
readout.kind: Emax (%)
Write the value in % as a bare number.

Worked cases, answers included:
1. CC(C)N(C)CCc1c[nH]c2cc(F)cc(F)c12 [Example P-149]
30.1
2. Cc1ccc2[nH]cc(CCN(C)C)c2c1O [Example P-10]
-0.21
3. COc1ccc(F)c2[nH]cc(CCN(C(C)C)C(C)C)c12 [Example P-105]
127
4. COc1c(C)ccc2[nH]cc(CCN(C)C(C)C)c12 [Example P-60]
71
5. COc1cc2c(CCN(C(C)C)C(C)C)c[nH]c2cc1C [Example P-49]
74.8
6. CN(C)CCc1c[nH]c2ccc3c(c12)OCC3 [Example P-3]
13.8

Let us move to another entry and its Emax.
The value of Emax measured for the compound COc1cc(F)c2[nH]cc(CCN(C(C)C)C(C)C)c2c1 [Example P-118] turned out to be 95.2

* * *

Here, each record is paired with measured pEC50 data.
target: 5-HT2C receptor (Homo sapiens, UniProt P28335); construct: host or cells: HEK293; assay: cell-based; details: agonist activity, Ca2+ flux, HEK293 cells; read-out: 5-HT2C EC50
# log scale: pEC50 equals minus log10 of the concentration in mol/L

1. CN(C)CCc1c[nH]c2ccc3c(c12)OCC3 [Example P-3]
7.79
2. CCCN(CCC)CCc1c[nH]c2c(C)cc(OC)cc12 [Example P-57]
5.54

Below: the item to evaluate.
Lab note: CCN(CC)CCc1c[nH]c2c(C)ccc(OC)c12 [Example P-82] gave pEC50 of 6.38

* * *

Items are presented alongside their recorded log10 of EC50.
biological target: 5-HT2A receptor (Homo sapiens, UniProt P28223); construct: host or cells: HEK293; test: FLIPR Ca2+ flux functional assay, 5-HT2A; type: cell-based; conditions: agonist activity, Ca2+ flux, HEK293 cells; read-out: 5-HT2A EC50
Transform log10 | Measure EC50 | Unit nM

1) COc1c(C)ccc2[nH]cc(CCN(C(C)C)C(C)C)c12
3.20
2) Cc1ccc2[nH]cc(CCN(C(C)C)C(C)C)c2c1O
2.39
3) Cc1ccc2[nH]cc(CCN(C)C)c2c1O
1.74
4) COc1c(F)ccc2[nH]cc(CCN(C)C(C)C)c12
0.86
5) COc1cc2c(CCN(C)C)c[nH]c2cc1C
1.20
6) COc1c(F)ccc2[nH]cc(CCN(C(C)C)C(C)C)c12
1.30
7) Cc1ccc(O)c2c(CCN(C(C)C)C(C)C)c[nH]c12
2.91
8) CCN(CC)CCc1c[nH]c2ccc(C)c(OC)c12
2.51

Given item CCN(C)CCc1c[nH]c2cc(F)c(F)cc12 , the value recorded as its log10 of EC50 is 1.17

The recorded log10 of EC50 for entry CCCN(CC)CCc1c[nH]c2c(C)cc(OC)cc12 equals 2.13

log10 of EC50 measured on CCN(C)CCc1c[nH]c2cc(C)c(OC)cc12 = 1.42

For record CCN(C)CCc1c[nH]c2ccc(C)c(O)c12 the listed log10 of EC50 is 1.79

// sample Cc1nc2c(ccc3[nH]cc(CCN(C)C(C)C)c32)o1 , its log10 of EC50 was 1.45

Documented log10 of EC50 of CCN(CC)CCc1c[nH]c2c(C)cc(OC)cc12 : 2.40

Lab note: CC(C)N(CCc1c[nH]c2ccc3ocnc3c12)C(C)C gave log10 of EC50 of 1.26

response.value for CN(C)CCc1c[nH]c2c(F)cc(F)cc12 (field: log10 of EC50) = 1.61

* * *

Reported Emax is given for each of the following molecules.
biological target: 5-HT2C receptor (Homo sapiens, UniProt P28335); construct: host or cells: HEK293; test: cell-based; conditions: agonist activity, Ca2+ flux, HEK293 cells
Record the value in %, omitting the unit from your answer.

Study these solved cases before continuing.
1) CCCN(CC)CCc1c[nH]c2c(C)cc(OC)cc12
57.9
2) CCN(CC)CCc1c[nH]c2c(C)ccc(OC)c12
76.7

Field Emax (entry CCN(CC)CCc1c[nH]c2c(F)ccc(OC)c12 ) reads 52.5

What the record says about Cc1ccc(O)c2c(CCN(C(C)C)C(C)C)c[nH]c12 : Emax is 50.2

Measured values drawn from patent US20250101038A1 for this set.
